organism: Rattus norvegicus; experiment: DrugMatrix - Regimen: Daily Repeat; assay type: toxicity, organism-based, Sprague-Dawley; design: regimen Daily Repeat, gender Male, age 6-8 weeks; conditions: in vivo, po, 0 mg/kg, 120 h, tissue Blood, route oral GAVAGE, dose level Control, time 5 day, vehicle .5 % CMC
Kindly state BASOPHIL for each of the entries shown.
One number for each entry, in %.

ClC(Cl)Br [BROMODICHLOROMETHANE] :: 0
CCOP(=S)(OCC)Oc1nc(Cl)c(Cl)cc1Cl [CHLORPYRIFOS] :: 0.48
CCCCc1oc2ccccc2c1C(=O)c1cc(I)c(OCCN(CC)CC)c(I)c1 [AMIODARONE] :: 0
N=C(N)NCCN1CCCCCCC1 [GUANETHIDINE] :: 0
OCCN(CCO)c1nc(N2CCCCC2)c2nc(N(CCO)CCO)nc(N3CCCCC3)c2n1 [DIPYRIDAMOLE] :: 0

Your task in this section: give BASOPHIL for each listed record.
1. Cc1ccc(/N=C/N(C)/C=N/c2ccc(C)cc2C)c(C)c1 [AMITRAZ]
2. CN1CCN(CCCN2c3ccccc3Sc3ccc(Cl)cc32)CC1 [PROCHLORPERAZINE]
3. NC1=NC(=O)C(c2ccccc2)O1 (stereo not drawn) [PEMOLINE]
4. Cc1nc2n(c(=O)c1CCN1CCC(c3noc4cc(F)ccc34)CC1)CCCC2 [RISPERIDONE]
5. O=C(CCCN1CC=C(n2c(=O)[nH]c3ccccc32)CC1)c1ccc(F)cc1 [DROPERIDOL]
6. ClC(Br)Br [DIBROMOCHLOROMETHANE]

RESULT:
0
0
0
0
1.35
0

---

organism: Rattus norvegicus; assay: DrugMatrix - Regimen: Daily Repeat; format: toxicity, organism-based, Sprague-Dawley; parameters: regimen Daily Repeat, gender Male, age 6-8 weeks; details: in vivo, po, 0 mg/kg, 120 h, tissue Plasma, route oral GAVAGE, dose level Control, time 5 day, vehicle 100 % WATER
measurementLabel: ALBUMIN (G/DL)
Give bare numbers, in G/DL.

Your task in this section: give ALBUMIN for each listed record.
1. COc1cc2nc(N3CCN(C(=O)C4COc5ccccc5O4)CC3)nc(N)c2cc1OC (centres undefined) [DOXAZOSIN]
2. NCCCCCC(=O)O [AMINOCAPROIC ACID]
3. Nc1c2c(nc3ccccc13)CCCC2 [TACRINE]
4. c1ccc([C@H]2CN3CCSC3=N2)cc1 [LEVAMISOLE]
5. CNNCc1ccc(C(=O)NC(C)C)cc1 [PROCARBAZINE]
6. Clc1cccc(Cl)c1N=C1NCCN1 [CLONIDINE]
7. CC(O)CO (centres undefined) [PROPYLENE GLYCOL]
8. C[C@](N)(Cc1ccc(O)c(O)c1)C(=O)O [METHYLDOPA]

RESULT:
1. 4.07
2. 4.28
3. 3.73
4. 4.3
5. 4.07
6. 4.23
7. 4.28
8. 4.32

Your task in this section: give ALBUMIN for each listed record.
1. C=CCC1(C(C)CCC)C(=O)NC(=O)NC1=O (centres undefined) [SECOBARBITAL]
2. C[C@H]1c2cccc(O)c2C(=O)C2=C(O)[C@]3(O)C(=O)C(C(N)=O)=C(O)[C@@H](N(C)C)[C@@H]3[C@@H](O)[C@@H]21.O [DOXYCYCLINE]
3. C[C@H](CS)C(=O)N1CCC[C@H]1C(=O)O [CAPTOPRIL]
4. N[C@@H](Cc1ccc(O)c(O)c1)C(=O)O [LEVODOPA]
5. Cc1onc(-c2ccccc2Cl)c1C(=O)N[C@@H]1C(=O)N2[C@@H]1SC(C)(C)[C@@H]2C(=O)O [CLOXACILLIN]

RESULT:
3.97
4.07
4.08
4.07
4.28

QUERY: Quick check: ALBUMIN of Cn1cc[nH]c1=S [METHIMAZOLE] ?
RESULT: 4.07
